assay: Stability against enzymatic degradation in human serum; format: in vitro ADME
Quantity: half-life (h)
A number alone suffices; assume h.

CSCC[C@H](NC(=O)[C@H](Cc1c[nH]c2ccccc12)NC(=O)[C@H]1CCCCNC(=O)[C@H](NC(=O)CN2CCN(CC(=O)O)CCN(CC(=O)O)CCN(CC(=O)O)CC2)CCC(=O)N[C@@H](C)C(=O)N[C@@H](Cc2ccc(O)cc2)C(=O)N1)C(=O)N[C@@H](CC(=O)O)C(=O)N[C@@H](Cc1ccccc1)C(N)=O [^177Lu-DOTA-cyclo-MG1, metal not drawn]	30.1

# ---- query compound ----
query: Entry CCCC[C@H](NC(=O)[C@H](Cc1c[nH]c2ccccc12)NC(=O)[C@H]1CCCCNC(=O)[C@H](NC(=O)CN2CCN(CC(=O)O)CCN(CC(=O)O)CCN(CC(=O)O)CC2)CCC(=O)N[C@@H](C)C(=O)N[C@@H](Cc2ccc(O)cc2)C(=O)N1)C(=O)N[C@@H](CC(=O)O)C(=O)N[C@@H](Cc1ccccc1)C(N)=O [^177Lu-DOTA-cyclo-MG2, metal not drawn] has what half-life?
result: 17.8
